meta.source: patent US20050107289A1

Assignment: determine reported RBC Hemolysis (HD50) for the given compounds.
# Test system: murine red blood cells
# Protocol notes: Red blood cell hemolysis
# Assay type: cell-based, mouse
Counter-ions that a name gives are not always drawn. Non-standard residues stand in square brackets, D forms with d. Residues, ends and D or L forms follow the SMILES beside them.

Worked cases, answers included:
{"Compound": "CC(C)C[C@H]1NC(=O)[C@H](Cc2c[nH]c3ccccc23)NC(=O)[C@@H](CCCNC(=N)N)NC(=O)[C@H](CCCNC(=N)N)NC(=O)[C@@H](CC(C)C)NC(=O)[C@H](Cc2c[nH]c3ccccc23)NC1=O [SEQ ID NO:115, [RRWLWL]] (cyclo(R[dR]W[dL]W[dL]))", "RBC Hemolysis (HD50)": 90}
{"Compound": "CC(C)C[C@@H]1NC(=O)[C@@H](Cc2c[nH]c3ccccc23)NC(=O)[C@H](CCCCN)NC(=O)[C@@H](Cc2ccccc2)NC(=O)[C@H](CCCCN)NC(=O)[C@@H](Cc2c[nH]c3ccccc23)NC1=O [SEQ ID NO:128, [KFKWLW]] (cyclo(K[dF]K[dW]L[dW]))", "RBC Hemolysis (HD50)": ">61"}
{"Compound": "CC(C)C[C@@H]1NC(=O)[C@@H](Cc2c[nH]c3ccccc23)NC(=O)[C@H](C(C)C)NC(=O)[C@@H](CCCNC(=N)N)NC(=O)[C@H](CCC(N)=O)NC(=O)[C@@H](CCCNC(=N)N)NC(=O)[C@H](Cc2c[nH]c3ccccc23)NC(=O)[C@@H](Cc2c[nH]c3ccccc23)NC1=O [SEQ ID NO:70, [QRVWLWWR]] (cyclo(Q[dR]V[dW]L[dW]W[dR]))", "RBC Hemolysis (HD50)": 30}
{"Compound": "CC[C@H](C)[C@@H]1NC(=O)[C@@H](CC(C)C)NC(=O)[C@H](CCCCN)NC(=O)[C@@H](CO)NC(=O)[C@H](CCCCN)NC(=O)[C@@H](CC(C)C)NC(=O)[C@H]([C@@H](C)CC)NC(=O)[C@@H](CC(C)C)NC1=O [SEQ ID NO:57, [KSKLILIL]] (cyclo(I[dL]I[dL]K[dS]K[dL]))", "RBC Hemolysis (HD50)": ">200"}
{"Compound": "CC(C)C[C@@H]1NC(=O)[C@@H](Cc2c[nH]c3ccccc23)NC(=O)[C@H](CCCCN)NC(=O)[C@@H](CCCNC(=N)N)NC(=O)[C@H](CCCCN)NC(=O)[C@@H](Cc2c[nH]c3ccccc23)NC1=O [SEQ ID NO:125, [KRKWLW]] (cyclo(K[dR]K[dW]L[dW]))", "RBC Hemolysis (HD50)": ">174"}
{"Compound": "CC(C)C[C@H]1NC(=O)[C@H](CCCCN)NC(=O)[C@@H](CO)NC(=O)[C@H](CCCCN)NC(=O)[C@@H](CC(C)C)NC(=O)[C@H](CCC(N)=O)NC(=O)[C@@H](CC(C)C)NC(=O)[C@H](CCC(N)=O)NC1=O [SEQ ID NO:104, [KSKLQLQL]] (cyclo(K[dS]K[dL]Q[dL]Q[dL]))", "RBC Hemolysis (HD50)": ">200"}

For every record below, what is its RBC Hemolysis (HD50)?
1. CC(C)C[C@H]1NC(=O)[C@H](C)NC(=O)[C@@H](CCCCN)NC(=O)[C@H](CO)NC(=O)[C@@H](CO)NC(=O)[C@H](CCCCN)NC(=O)[C@@H](CC(C)C)NC(=O)[C@H](C)NC1=O [SEQ ID NO:78, [KSSKALAL]] (cyclo(K[dS]S[dK]A[dL]A[dL]))
2. CC(C)C[C@H]1NC(=O)[C@H](Cc2c[nH]c3ccccc23)NC(=O)[C@@H](Cc2c[nH]cn2)NC(=O)[C@H](Cc2c[nH]cn2)NC(=O)[C@@H](CO)NC(=O)[C@H](Cc2c[nH]c3ccccc23)NC(=O)[C@@H](CC(C)C)NC(=O)[C@H](Cc2c[nH]c3ccccc23)NC1=O [[SHHWLWLW-HCl] (15), SHHWLWLW] (cyclo([dS]H[dH]W[dL]W[dL]W))
3. CC(C)C[C@@H]1NC(=O)[C@@H](Cc2c[nH]c3ccccc23)NC(=O)[C@H](CCC(N)=O)NC(=O)[C@@H](Cc2c[nH]cn2)NC(=O)[C@H](CCCCN)NC(=O)[C@@H](Cc2c[nH]c3ccccc23)NC1=O [SEQ ID NO:120, [KHQWLW]] (cyclo(K[dH]Q[dW]L[dW]))
4. CC(C)C[C@H]1NC(=O)[C@H](CCCCN)NC(=O)[C@@H](CO)NC(=O)[C@H](CCCCN)NC(=O)[C@@H](CC(C)C)NC(=O)[C@H](C(C)C)NC(=O)[C@@H](CC(C)C)NC(=O)[C@H](C(C)C)NC1=O [SEQ ID NO:60, [KSKLVLVL]] (cyclo(K[dS]K[dL]V[dL]V[dL]))
5. CC(C)C[C@@H]1NC(=O)[C@@H](Cc2c[nH]c3ccccc23)NC(=O)[C@H](CCCCN)NC(=O)[C@@H](Cc2c[nH]cn2)NC(=O)[C@H](CCCCN)NC(=O)[C@@H](Cc2c[nH]c3ccccc23)NC1=O [SEQ ID NO:119, [KHKWLW]] (cyclo(K[dH]K[dW]L[dW]))
6. CC(C)C[C@@H]1NC(=O)[C@@H](Cc2c[nH]c3ccccc23)NC(=O)[C@H](Cc2c[nH]c3ccccc23)NC(=O)[C@@H](CCCNC(=N)N)NC(=O)[C@H](CCC(N)=O)NC(=O)[C@@H](CCCNC(=N)N)NC(=O)[C@H](Cc2c[nH]c3ccccc23)NC(=O)[C@@H](Cc2c[nH]c3ccccc23)NC1=O [SEQ ID NO:71, [QRWWLWWR]] (cyclo(Q[dR]W[dW]L[dW]W[dR]))

>240
40
115.0
>220
>115
35

For record CC(C)C[C@H]1NC(=O)[C@H](C(C)C)NC(=O)[C@@H](CC(C)C)NC(=O)[C@H](C(C)C)NC(=O)[C@@H](CCCCN)NC(=O)[C@H](CO)NC(=O)[C@@H](CO)NC(=O)[C@H](CCCCN)NC1=O [SEQ ID NO:80, [KSSKVLVL]] (cyclo(K[dS]S[dK]V[dL]V[dL])) the listed RBC Hemolysis (HD50) is >180
